Target: JNK1 (Homo sapiens, UniProt P45983)
Sequence (P45983 1-384 isoform P45983-2): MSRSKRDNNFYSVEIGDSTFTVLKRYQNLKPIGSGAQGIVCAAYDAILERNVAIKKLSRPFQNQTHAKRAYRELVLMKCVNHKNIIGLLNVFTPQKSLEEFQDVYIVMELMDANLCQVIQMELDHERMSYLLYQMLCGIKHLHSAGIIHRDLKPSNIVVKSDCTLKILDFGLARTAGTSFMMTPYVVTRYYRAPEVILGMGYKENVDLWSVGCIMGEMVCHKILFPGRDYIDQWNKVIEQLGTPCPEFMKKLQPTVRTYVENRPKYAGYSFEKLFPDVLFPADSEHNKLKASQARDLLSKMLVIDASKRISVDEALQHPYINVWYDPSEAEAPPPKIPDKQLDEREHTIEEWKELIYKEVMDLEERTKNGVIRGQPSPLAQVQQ
Assay: KINOMEscan competition binding assay, JNK1
Set-up: M1/Q384; host or cells: HEK-293
Settings: ratio PoC (off-target)/PoC (MKK4)
assayReadout: selectivity based on % Ctrl @100 nM vs. JNK1

compound: CCCS(=O)(=O)Nc1ccc(F)c(C(=O)c2c[nH]c3ncc(-c4ccnnc4)cc23)c1F [Example 49]
testValue: +++ (Ratio > 100)
//
compound: CCCS(=O)(=O)Nc1ccc(F)c(C(=O)c2c[nH]c3ncc(-c4ccc(C5CCC5)cc4)cc23)c1F [Example 82]
testValue: +++ (Ratio > 100)
